# Experiment: Stability of NTI164 oil formulation at room temperature (UPLC)
# Measurement Parameters: NTI164 oil, room temperature, Week 6
Value Kind: Cannabinoid content of NTI164, Week 6

- Molecule: "C=C(C)[C@@H]1CCC(C)=C[C@H]1c1c(O)cc(CCC)cc1O"
  Cannabinoid content of NTI164, Week 6: "<0.1 mg/mL"
- Molecule: "CCCCCc1cc(O)c2c(c1)OC(C)(C)[C@@H]1CCC(C)=C[C@@H]21 [Tetrahydrocannabinol (D9-THC), Delta-9-tetrahydrocannabinol]"
  Cannabinoid content of NTI164, Week 6: "<0.1 mg/mL"
- Molecule: "CCCc1cc(O)c2c(c1)OC(C)(C)[C@@H]1CCC(C)=C[C@@H]21 [Tetrahydrocannabivarin (THCV), Tetrahydrocannabivarin]"
  Cannabinoid content of NTI164, Week 6: "<0.1 mg/mL"

Now consider the entry below.
Q: Return the recorded Cannabinoid content of NTI164, Week 6 value; entry: CCCCCc1cc(O)c2c(c1)OC(C)(C)C1CC=C(C)CC21 (stereo not shown) [DELTA-8-THC (D8-THC), Delta-8-tetrahydrocannabinol]
Result: <0.1 mg/mL

Cited source: patent US20260335341A1
